B1: library; a variant is named by its letters at N, in order (parent)
chain: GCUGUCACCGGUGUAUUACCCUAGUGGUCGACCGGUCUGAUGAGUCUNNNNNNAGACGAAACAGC

Variants of: B1
Test: FACS-Seq fitted mean relative fluorescence mCherry/BFP with ligand (log10 relative fluorescence); ligand: hypoxanthine (xanthine aptamer); ligand concentration (+) FACS-Seq: 5 mM; higher = higher reporter protein expression
Conditions: HEK293T, ligand present: yes
Kindly return Met if reported FACS-Seq fitted mean (log10) is no lower than 0.4; return Not met if it is lower.

Input: # bool: FACS-Seq fitted mean (log10) of `CGACAC` >= 0.4
Output: Not met

Input: Try this variant next: `AGCCCA`
Output: Not met

Input: Also `CGGAGG` ?
Output: Met

Input: Now try `GAACUA` .
Output: Not met

Input: Request: `UAAUAU`
Output: Met

Input: Further, for `UGGAAU` ?
Output: Not met

Input: And `GUUAAU` ?
Output: Met

Input: # iterate: `GAGGCA`
Output: Met

Input: What do we get for `AACCCA` ?
Output: Not met

Input: // repeat for `ACGAAU` and report
Output: Met

Input: Next variant: `AAUACC`
Output: Met

Input: And what about the variant `GUCUAG` ?
Output: Met

Input: Again, but for `UUUGUG`
Output: Met

Input: What would you report for `AAGAUC` ?
Output: Met

Input: # iterate: `UAAAUU`
Output: Met

Input: Query `GGGCAG` next
Output: Met

Input: # iterate: `AUCAGG`
Output: Met

Input: Item: `GGCGAU`
Output: Met

Input: Next record, please: `GCUUGG`
Output: Not met

Input: Lookup `UGAUUU`
Output: Met

Input: And for `UUAAAG` ?
Output: Not met

Input: How about `AAUAAU` ?
Output: Not met
